Give pIC50 for every item shown.
- tested.target: human plasma protein factor Xa (Homo sapiens)
- Construct: The human plasma protein factor Xa was purchased
- Sequence (P00742 235-488 limits assumed): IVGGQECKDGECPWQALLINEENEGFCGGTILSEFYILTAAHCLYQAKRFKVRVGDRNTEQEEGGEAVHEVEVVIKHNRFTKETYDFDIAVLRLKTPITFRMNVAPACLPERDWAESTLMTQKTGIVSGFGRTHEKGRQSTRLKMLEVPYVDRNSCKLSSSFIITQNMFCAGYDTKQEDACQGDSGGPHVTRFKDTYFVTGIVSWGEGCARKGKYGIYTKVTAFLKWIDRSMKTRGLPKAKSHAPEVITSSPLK
- Sequence (P00742 41-179 partner limits assumed): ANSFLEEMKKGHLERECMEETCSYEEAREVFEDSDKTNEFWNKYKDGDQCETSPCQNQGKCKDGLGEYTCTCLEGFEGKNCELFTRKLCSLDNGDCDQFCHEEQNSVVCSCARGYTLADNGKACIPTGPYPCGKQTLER
- test.name: Factor Xa IC50 determination (cleavage of paranitroanilide substrate S-2765)
- condition.label: factor Xa 1 nM, S-2765 100 μM, Tris buffered saline pH 7.4, read at 405 nm
pIC50: −log10 of the molar value.

Challenge: Name the recorded pIC50 for O=C(NCc1cn(-c2ccc(-n3ccccc3=O)cc2N2CCOCC2)nn1)c1ccc(Cl)s1 .
Response given: ≥ 7.00

Challenge: Consider next the compound O=C(NCc1cn(-c2ccc(-n3ccccc3=O)cc2OCCCOC(=O)N2CCOCC2)nn1)c1ccc(Cl)s1 in the same way.
Response given: ≥ 7.00

Challenge: Consider next the compound O=C(NCc1cn(-c2ccc(-n3ccccc3=O)cc2OCCc2ccccn2)nn1)c1ccc(Cl)s1 in the same way.
Response given: ≥ 7.00

Challenge: Consider next the compound CC(=O)NC1CCN(c2cc(-n3ccccc3=O)ccc2-n2cc(CNC(=O)c3ccc(Cl)s3)nn2)CC1 in the same way.
Response given: ≥ 7.00

Challenge: Consider next the compound O=C(NCc1cn(-c2ccc(-n3ccccc3=O)cc2OCc2nccn2Cc2ncc[nH]2)nn1)c1ccc(Cl)s1 in the same way.
Response given: ≥ 7.00

Challenge: Consider next the compound NCCNC(=O)c1cc(-n2ccccc2=O)ccc1-n1cc(CNC(=O)c2ccc(Cl)s2)nn1 in the same way.
Response given: 6.30 to 7.00

Challenge: Consider next the compound NC(=O)C1CCN(C(=O)c2cc(-n3ccccc3=O)ccc2-n2cc(CNC(=O)c3ccc(Cl)s3)nn2)CC1 in the same way.
Response given: 6.30 to 7.00

Challenge: Consider next the compound NCCCNC(=O)c1cc(-n2ccccc2=O)ccc1-n1cc(CNC(=O)c2ccc(Cl)s2)nn1 in the same way.
Response given: 6.30 to 7.00

Challenge: Consider next the compound COCCNC(=O)c1cc(-n2ccccc2=O)ccc1-n1cc(CNC(=O)c2ccc(Cl)s2)nn1 in the same way.
Response given: 6.30 to 7.00

Challenge: Consider next the compound Cn1ccnc1COc1cc(-n2ccccc2=O)ccc1-n1cc(CNC(=O)c2ccc(Cl)s2)nn1 in the same way.
Response given: ≥ 7.00

Challenge: Consider next the compound O=C(NCc1cn(-c2ccc(-n3ccccc3=O)cc2C(=O)NCCO)nn1)c1ccc(Cl)s1 in the same way.
Response given: 6.30 to 7.00

Challenge: Consider next the compound NCC[S+]([O-])c1cc(-n2ccccc2=O)ccc1-n1cc(CNC(=O)c2ccc(Cl)s2)nn1 (stereo not drawn) in the same way.
Response given: ≥ 7.00

Challenge: Consider next the compound CNc1cc(-c2cc(-n3ccccc3=O)ccc2-n2cc(CNC(=O)c3ccc(Cl)s3)nn2)ccn1 in the same way.
Response given: ≥ 7.00

Challenge: Consider next the compound O=C(NCc1cn(-c2ccc(-n3ccccc3=O)cc2N2CC[S+]([O-])CC2)nn1)c1ccc(Cl)s1 in the same way.
Response given: ≥ 7.00

Challenge: Consider next the compound O=C(NCc1cn(-c2ccc(-n3ccccc3=O)cc2-c2ccnc(O)c2)nn1)c1ccc(Cl)s1 in the same way.
Response given: ≥ 7.00

The reported numbers originate from patent US20110160196A1.
